- protocol details: Stability of terbium complexes (luminescence lifetime) in buffers with ligands capable of decomplexing the lanthanide ions
- Format: physicochemical
- experimental context: Tris 50 mM - Serum 50%, pH = 7.0
experimental endpoint: τ (ms)
Use ms as the unit, but write only the number.

Here's what some known entries look like.
smiles str	experimental endpoint	readout units	result value
CCOP(=O)([O-])CN(Cc1cc(C#Cc2ccc(C#CCCCCC(=O)[O-])c3ccccc23)cc(CN(CP(=O)([O-])OCC)CP(=O)([O-])OCC)n1)CP(=O)([O-])OCC.[Na+].[Na+].[Tb+3]	τ	ms	3.0
CCOP(=O)([O-])CN(CC(=O)[O-])Cc1cc(C#Cc2ccc(C(=O)NCCCC(=O)[O-])c3ccccc23)cc(CN(CC(=O)[O-])CP(=O)([O-])OCC)n1.[Na+].[Na+].[Tb+3]	τ	ms	2.6

Find the recorded τ belonging to CCOP(=O)([O-])CN(CC(=O)[O-])Cc1cc(C#Cc2ccc(C#CCCCCC(=O)[O-])c3ccccc23)cc(CN(CC(=O)[O-])CP(=O)([O-])OCC)n1.[Na+].[Na+].[Tb+3] and report it.
2.4

Find the recorded τ belonging to CCOP(=O)([O-])CN(Cc1cc(C#Cc2ccc(C(=O)NCCCC(=O)[O-])c3ccccc23)cc(CN(CP(=O)([O-])OCC)CP(=O)([O-])OCC)n1)CP(=O)([O-])OCC.[Na+].[Na+].[Tb+3] and report it.
3.0

###

- protocol details: Stability of terbium complexes (luminescence lifetime) in buffers with ligands capable of decomplexing the lanthanide ions
- Type: physicochemical
- experimental context: Tris 0.1M, pH = 7.0
- Protocol: By way of example, the stability of the terbium complexes synthesized from the ligands (I-1) to (I-4) in accordance with the invention is given in Table 2 below. Various buffers in the presence of ligands capable of decomplexing the lanthanide ions were tested. For comparative purposes, Table 2 also gives the stability of a terbium complex TbL4 of the prior art corresponding to the following formula: […]
experimental endpoint: τ (ms)
Use ms as the unit, but write only the number.

molecule	result value
CCOP(=O)([O-])CN(CC(=O)[O-])Cc1cc(C#Cc2ccc(C(=O)NCCCC(=O)[O-])c3ccccc23)cc(CN(CC(=O)[O-])CP(=O)([O-])OCC)n1.[Na+].[Na+].[Tb+3] [Tb(I-1)]	2.7
CCOP(=O)([O-])CN(CC(=O)[O-])Cc1cc(C#Cc2ccc(C#CCCCCC(=O)[O-])c3ccccc23)cc(CN(CC(=O)[O-])CP(=O)([O-])OCC)n1.[Na+].[Na+].[Tb+3] [Tb(I-2)]	2.5
CCOP(=O)([O-])CN(Cc1cc(C#Cc2ccc(C#CCCCCC(=O)[O-])c3ccccc23)cc(CN(CP(=O)([O-])OCC)CP(=O)([O-])OCC)n1)CP(=O)([O-])OCC.[Na+].[Na+].[Tb+3] [Tb(I-4)]	3.1

// next item, τ requested
Find the recorded τ belonging to CCOP(=O)([O-])CN(Cc1cc(C#Cc2ccc(C(=O)NCCCC(=O)[O-])c3ccccc23)cc(CN(CP(=O)([O-])OCC)CP(=O)([O-])OCC)n1)CP(=O)([O-])OCC.[Na+].[Na+].[Tb+3] [Tb(I-3)] and report it.
3.0

###

- protocol details: Emission properties: luminescence lifetime and quantum luminescence yield in water and D2O
- Format: physicochemical
- experimental context: D2O; error estimated ±5%
Readings of Emission τ (luminescence lifetime) for the listed compounds
Use ms as the unit, but write only the number.

Here's what some known entries look like.
smiles str	Emission τ (luminescence lifetime), ms
CCOP(=O)([O-])CN(Cc1cc(C#Cc2ccc(C#CCCCCC(=O)[O-])c3ccccc23)cc(CN(CP(=O)([O-])OCC)CP(=O)([O-])OCC)n1)CP(=O)([O-])OCC.[Na+].[Na+].[Tb+3]	3.5
CCOP(=O)([O-])CN(Cc1cc(C#Cc2ccc(C(=O)NCCCC(=O)[O-])c3ccccc23)cc(CN(CP(=O)([O-])OCC)CP(=O)([O-])OCC)n1)CP(=O)([O-])OCC.[Na+].[Na+].[Tb+3]	3.4
CCOP(=O)([O-])CN(CC(=O)[O-])Cc1cc(C#Cc2ccc(C#CCCCCC(=O)[O-])c3ccccc23)cc(CN(CC(=O)[O-])CP(=O)([O-])OCC)n1.[Na+].[Na+].[Tb+3]	3.2
CCOP(=O)([O-])CN(CC(=O)[O-])Cc1cc(C#Cc2ccc(C(=O)NCCCC(=O)[O-])c3ccccc23)cc(CN(CC(=O)[O-])CP(=O)([O-])OCC)n1.[Eu+3].[Na+].[Na+]	2.4

Find the recorded Emission τ (luminescence lifetime) belonging to CCOP(=O)([O-])CN(CC(=O)[O-])Cc1cc(C#Cc2ccc(C(=O)NCCCC(=O)[O-])c3ccccc23)cc(CN(CC(=O)[O-])CP(=O)([O-])OCC)n1.[Na+].[Na+].[Tb+3] and report it.
3.1

###

- protocol details: Stability of terbium complexes (luminescence lifetime) in buffers with ligands capable of decomplexing the lanthanide ions
- Format: physicochemical
- experimental context: Phosphate 0.1M, pH = 7.0
Readings of τ for the listed compounds
Use ms as the unit, but write only the number.

smiles str	readout units	τ
CCOP(=O)([O-])CN(CC(=O)[O-])Cc1cc(C#Cc2ccc(C#CCCCCC(=O)[O-])c3ccccc23)cc(CN(CC(=O)[O-])CP(=O)([O-])OCC)n1.[Na+].[Na+].[Tb+3]	ms	2.5
CCOP(=O)([O-])CN(CC(=O)[O-])Cc1cc(C#Cc2ccc(C(=O)NCCCC(=O)[O-])c3ccccc23)cc(CN(CC(=O)[O-])CP(=O)([O-])OCC)n1.[Na+].[Na+].[Tb+3]	ms	2.7
CCOP(=O)([O-])CN(Cc1cc(C#Cc2ccc(C#CCCCCC(=O)[O-])c3ccccc23)cc(CN(CP(=O)([O-])OCC)CP(=O)([O-])OCC)n1)CP(=O)([O-])OCC.[Na+].[Na+].[Tb+3]	ms	3.0

Find the recorded τ belonging to CCOP(=O)([O-])CN(Cc1cc(C#Cc2ccc(C(=O)NCCCC(=O)[O-])c3ccccc23)cc(CN(CP(=O)([O-])OCC)CP(=O)([O-])OCC)n1)CP(=O)([O-])OCC.[Na+].[Na+].[Tb+3] and report it.
2.9

###

- protocol details: Stability of terbium complexes (luminescence lifetime) in buffers with ligands capable of decomplexing the lanthanide ions
- Type: physicochemical
- experimental context: Tris 0.1M - EDTA 10 mM, pH = 7.0
experimental endpoint: τ (ms)
Use ms as the unit, but write only the number.

smiles str	τ, ms
CCOP(=O)([O-])CN(Cc1cc(C#Cc2ccc(C(=O)NCCCC(=O)[O-])c3ccccc23)cc(CN(CP(=O)([O-])OCC)CP(=O)([O-])OCC)n1)CP(=O)([O-])OCC.[Na+].[Na+].[Tb+3]	3.0
CCOP(=O)([O-])CN(CC(=O)[O-])Cc1cc(C#Cc2ccc(C(=O)NCCCC(=O)[O-])c3ccccc23)cc(CN(CC(=O)[O-])CP(=O)([O-])OCC)n1.[Na+].[Na+].[Tb+3]	2.6
CCOP(=O)([O-])CN(CC(=O)[O-])Cc1cc(C#Cc2ccc(C#CCCCCC(=O)[O-])c3ccccc23)cc(CN(CC(=O)[O-])CP(=O)([O-])OCC)n1.[Na+].[Na+].[Tb+3]	2.4

Find the recorded τ belonging to CCOP(=O)([O-])CN(Cc1cc(C#Cc2ccc(C#CCCCCC(=O)[O-])c3ccccc23)cc(CN(CP(=O)([O-])OCC)CP(=O)([O-])OCC)n1)CP(=O)([O-])OCC.[Na+].[Na+].[Tb+3] and report it.
3.1

###

- protocol details: Emission properties: luminescence lifetime and quantum luminescence yield in water and D2O
- Format: physicochemical
- experimental context: D2O; error estimated ±15%
experimental endpoint: Emission φ (quantum luminescence yield) (%)
Use % as the unit, but write only the number.

Here's what some known entries look like.
compound	readout units	Emission φ (quantum luminescence yield)
CCOP(=O)([O-])CN(CC(=O)[O-])Cc1cc(C#Cc2ccc(C(=O)NCCCC(=O)[O-])c3ccccc23)cc(CN(CC(=O)[O-])CP(=O)([O-])OCC)n1.[Na+].[Na+].[Tb+3] [Tb(I-1)]	%	46
CCOP(=O)([O-])CN(Cc1cc(C#Cc2ccc(C#CCCCCC(=O)[O-])c3ccccc23)cc(CN(CP(=O)([O-])OCC)CP(=O)([O-])OCC)n1)CP(=O)([O-])OCC.[Eu+3].[Na+].[Na+] [Eu(I-4)]	%	24
CCOP(=O)([O-])CN(CC(=O)[O-])Cc1cc(C#Cc2ccc(C#CCCCCC(=O)[O-])c3ccccc23)cc(CN(CC(=O)[O-])CP(=O)([O-])OCC)n1.[Eu+3].[Na+].[Na+] [Eu(I-2)]	%	26
CCOP(=O)([O-])CN(Cc1cc(C#Cc2ccc(C#CCCCCC(=O)[O-])c3ccccc23)cc(CN(CP(=O)([O-])OCC)CP(=O)([O-])OCC)n1)CP(=O)([O-])OCC.[Na+].[Na+].[Tb+3] [Tb(I-4)]	%	41

Find the recorded Emission φ (quantum luminescence yield) belonging to CCOP(=O)([O-])CN(Cc1cc(C#Cc2ccc(C(=O)NCCCC(=O)[O-])c3ccccc23)cc(CN(CP(=O)([O-])OCC)CP(=O)([O-])OCC)n1)CP(=O)([O-])OCC.[Na+].[Na+].[Tb+3] [Tb(I-3)] and report it.
42

Find the recorded Emission φ (quantum luminescence yield) belonging to CCOP(=O)([O-])CN(CC(=O)[O-])Cc1cc(C#Cc2ccc(C#CCCCCC(=O)[O-])c3ccccc23)cc(CN(CC(=O)[O-])CP(=O)([O-])OCC)n1.[Na+].[Na+].[Tb+3] [Tb(I-2)] and report it.
45

Find the recorded Emission φ (quantum luminescence yield) belonging to CCOP(=O)([O-])CN(Cc1cc(C#Cc2ccc(C(=O)NCCCC(=O)[O-])c3ccccc23)cc(CN(CP(=O)([O-])OCC)CP(=O)([O-])OCC)n1)CP(=O)([O-])OCC.[Eu+3].[Na+].[Na+] [Eu(I-3)] and report it.
22

Find the recorded Emission φ (quantum luminescence yield) belonging to CCOP(=O)([O-])CN(CC(=O)[O-])Cc1cc(C#Cc2ccc(C(=O)NCCCC(=O)[O-])c3ccccc23)cc(CN(CC(=O)[O-])CP(=O)([O-])OCC)n1.[Eu+3].[Na+].[Na+] [Eu(I-1)] and report it.
24

FYI, the data here is from patent US9388202B2.
